- assay_protocol: Pharmacokinetics in female BALB/c nude mice bearing A375 xenografts, 1 day dosing (PK and PD study): plasma, tumor and brain concentrations, AUC
- Type: in vivo
- condition_set: mouse, plasma, po, 2 mg/kg, 2 mg/kg p.o. TID × 1 day; post 2nd dose; 2 h; read-out: Mean Concentration in Plasma ± SEM
observation_type: concentration at 2 h (ng/mL)
Field format: number, assumed ng/mL, no unit text.

Name the recorded concentration at 2 h of the item `CCN(C)S(=O)(=O)Nc1ccc(F)c(Oc2ccc3ncn([C@H]4COC5(CCN(C6CC7(C6)CN(c6cc8c(cc6F)c(N6CCC(=O)NC6=O)nn8C)C7)CC5)C4)c(=O)c3c2)c1C#N` in your answer.
2720

----------
- assay_protocol: Pharmacokinetics in female BALB/c nude mice bearing A375 xenografts, 1 day dosing (PK and PD study): plasma, tumor and brain concentrations, AUC
- Format: in vivo
- condition_set: mouse, tumor, po, 100 mg/kg, 100 mg/kg p.o. QD × 1 day; 10 h; read-out: Mean Concentration in Tumor ± SEM
- Text: The concentrations of Dabrafenib, Compound 26 and Compound 141 in the treatment of female BALB/c nude mice bearing A375 xenografts are shown in Table 62-Table 72 and FIG. 52-FIG. 73.
observation_type: concentration at 10 h (ng/g)
Field format: number, assumed ng/g, no unit text.

Name the recorded concentration at 10 h of the item CC(C)(C)c1nc(-c2cccc(NS(=O)(=O)c3c(F)cccc3F)c2F)c(-c2ccnc(N)n2)s1 [Dabrafenib, dabrafenib, reference compound] in your answer.
18

----------
- assay_protocol: Pharmacokinetics in female BALB/c nude mice bearing A375 xenografts, 1 day dosing (PK and PD study): plasma, tumor and brain concentrations, AUC
- Assay type: in vivo
- condition_set: mouse, plasma, po, 3 mg/kg, 3 mg/kg p.o. BID × 1 day; post 2nd dose; 4 h; read-out: Mean Concentration in Plasma ± SEM
observation_type: concentration at 4 h (ng/mL)
Field format: number, assumed ng/mL, no unit text.

Name the recorded concentration at 4 h of the item `CCN(C)S(=O)(=O)Nc1ccc(F)c(Oc2ccc3ncn([C@H]4COC5(CCN(C6CC7(C6)CN(c6cc8c(cc6F)c(N6CCC(=O)NC6=O)nn8C)C7)CC5)C4)c(=O)c3c2)c1C#N` in your answer.
2590

----------
- assay_protocol: Pharmacokinetics in female BALB/c nude mice bearing A375 xenografts, 1 day dosing (PK and PD study): plasma, tumor and brain concentrations, AUC
- Type: in vivo
- condition_set: mouse, plasma, po, 0.75 mg/kg, 0.75 mg/kg p.o. BID × 1 day; post 2nd dose; 1 h; read-out: Mean Concentration in Plasma ± SEM
observation_type: concentration at 1 h

Name the recorded concentration at 1 h of the item CCN(C)S(=O)(=O)Nc1ccc(F)c(Oc2ccc3ncn(C4CC5(CCN(C6CC7(C6)CN(c6cc8c(cc6F)c(N6CCC(=O)NC6=O)nn8C)C7)CC5)C4)c(=O)c3c2)c1C#N (stereo not shown) in your answer.
778 ng/mL

----------
- system: BRAF V600E (Homo sapiens, UniProt P15056+Q96SW2, V600E)
- Construct: knock-in of the HiBiT tag to the endogenous BRAF V600E locus; host or cells: A375.10 (A375 clonal line, CRISPR HiBiT knock-in at the endogenous BRAF V600E locus)
- Sequence (P15056 whole entry V600E): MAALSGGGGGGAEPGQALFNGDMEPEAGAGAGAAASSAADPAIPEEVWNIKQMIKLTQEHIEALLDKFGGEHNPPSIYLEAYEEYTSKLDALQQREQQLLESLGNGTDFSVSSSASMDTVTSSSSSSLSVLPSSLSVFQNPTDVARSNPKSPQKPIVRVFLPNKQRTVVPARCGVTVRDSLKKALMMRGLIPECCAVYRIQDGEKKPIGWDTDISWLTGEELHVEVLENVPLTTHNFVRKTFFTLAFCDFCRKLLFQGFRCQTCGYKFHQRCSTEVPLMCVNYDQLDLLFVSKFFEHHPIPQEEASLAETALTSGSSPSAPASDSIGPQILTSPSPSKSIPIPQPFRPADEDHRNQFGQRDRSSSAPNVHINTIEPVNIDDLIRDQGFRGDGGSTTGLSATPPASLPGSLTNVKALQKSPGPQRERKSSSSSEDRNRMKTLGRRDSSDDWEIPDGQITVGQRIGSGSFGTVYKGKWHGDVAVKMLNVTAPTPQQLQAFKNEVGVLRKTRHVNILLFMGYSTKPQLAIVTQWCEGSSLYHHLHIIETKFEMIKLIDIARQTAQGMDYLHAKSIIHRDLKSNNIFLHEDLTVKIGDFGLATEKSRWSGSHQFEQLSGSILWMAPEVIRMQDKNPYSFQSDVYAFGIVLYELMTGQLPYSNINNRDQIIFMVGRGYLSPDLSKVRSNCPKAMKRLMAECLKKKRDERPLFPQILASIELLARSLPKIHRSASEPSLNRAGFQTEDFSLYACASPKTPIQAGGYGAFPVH
- Sequence (Q96SW2 whole entry): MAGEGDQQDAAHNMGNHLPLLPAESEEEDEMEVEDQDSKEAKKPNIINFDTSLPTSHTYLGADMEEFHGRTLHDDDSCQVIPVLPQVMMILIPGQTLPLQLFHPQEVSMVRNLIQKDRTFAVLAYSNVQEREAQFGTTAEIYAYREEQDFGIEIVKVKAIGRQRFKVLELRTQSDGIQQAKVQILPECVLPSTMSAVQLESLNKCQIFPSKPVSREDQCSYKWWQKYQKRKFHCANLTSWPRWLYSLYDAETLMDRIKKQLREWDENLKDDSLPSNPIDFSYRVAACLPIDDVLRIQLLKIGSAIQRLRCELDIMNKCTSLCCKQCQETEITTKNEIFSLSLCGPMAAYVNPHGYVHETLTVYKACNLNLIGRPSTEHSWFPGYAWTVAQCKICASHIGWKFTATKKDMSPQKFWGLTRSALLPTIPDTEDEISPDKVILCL
- Sequence (Q16531 whole entry partner): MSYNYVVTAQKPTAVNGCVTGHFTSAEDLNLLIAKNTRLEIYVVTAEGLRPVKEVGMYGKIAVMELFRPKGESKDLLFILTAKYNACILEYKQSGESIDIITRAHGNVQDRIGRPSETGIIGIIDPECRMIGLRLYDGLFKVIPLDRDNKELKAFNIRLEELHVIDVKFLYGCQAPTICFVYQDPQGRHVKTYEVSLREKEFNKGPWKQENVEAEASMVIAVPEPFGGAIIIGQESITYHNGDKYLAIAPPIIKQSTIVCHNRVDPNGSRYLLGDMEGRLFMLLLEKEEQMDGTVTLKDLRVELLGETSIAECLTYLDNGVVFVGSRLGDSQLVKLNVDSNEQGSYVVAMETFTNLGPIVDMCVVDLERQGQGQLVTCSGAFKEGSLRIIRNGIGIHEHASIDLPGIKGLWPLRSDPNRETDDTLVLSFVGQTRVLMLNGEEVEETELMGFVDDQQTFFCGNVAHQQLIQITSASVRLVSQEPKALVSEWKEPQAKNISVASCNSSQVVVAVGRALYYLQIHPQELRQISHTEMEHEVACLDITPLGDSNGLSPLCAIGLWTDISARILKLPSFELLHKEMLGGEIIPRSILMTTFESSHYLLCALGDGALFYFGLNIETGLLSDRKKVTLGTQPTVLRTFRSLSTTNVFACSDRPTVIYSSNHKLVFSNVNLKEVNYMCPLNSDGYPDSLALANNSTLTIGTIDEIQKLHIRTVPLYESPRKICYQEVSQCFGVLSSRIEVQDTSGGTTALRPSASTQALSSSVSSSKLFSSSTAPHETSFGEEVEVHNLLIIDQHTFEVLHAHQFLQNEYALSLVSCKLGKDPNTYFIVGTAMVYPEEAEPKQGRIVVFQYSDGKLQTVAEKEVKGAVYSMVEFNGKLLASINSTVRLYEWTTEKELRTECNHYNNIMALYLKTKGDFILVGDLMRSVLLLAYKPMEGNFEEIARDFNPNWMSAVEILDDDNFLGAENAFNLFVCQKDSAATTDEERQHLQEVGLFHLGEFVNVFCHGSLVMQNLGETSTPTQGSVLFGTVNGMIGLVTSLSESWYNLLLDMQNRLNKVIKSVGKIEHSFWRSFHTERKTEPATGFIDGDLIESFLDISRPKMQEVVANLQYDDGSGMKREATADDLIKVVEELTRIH
- assay_protocol: BRAF V600E HiBiT Degradation Assay
- Assay type: cell-based
- condition_set: A375.10 cells, BRAF V600E, 2 hours; residual protein remaining; read-out: HiBiT-Degradation A375.10 BRAF 2 hours Emax
Please respond with reported Emax for every item in the list.

Name the recorded Emax of the item CCN(C)S(=O)(=O)Nc1ccc(F)c(C(=O)c2ccc3ncn(C4CC5(CCN(C6CCC(c7cc8c(cc7F)c(N7CCC(=O)NC7=O)nn8C)CC6)CC5)C4)c(=O)c3c2)c1F (single isomer, unassigned) in your answer.
50 to 90%

Name the recorded Emax of the item `Cn1nc(N2CCC(=O)NC2=O)c2cc(F)c(N3CC4(CC(N5CCC6(CC5)CC(c5cnc7ccc(Oc8c(F)ccc(NS(=O)(=O)C9CCCC9)c8C#N)cc7n5)C6)C4)C3)cc21` in your answer.
< 50%

Name the recorded Emax of the item CCN(C)S(=O)(=O)Nc1ccc(F)c(Oc2ccc3ncc(C4CC5(C4)CN(C4CC6(C4)CN(c4cc7c(cc4F)c(N4CCC(=O)NC4=O)nn7C)C6)C5)nc3c2)c1C#N (stereo not drawn) in your answer.
50 to 90%

Name the recorded Emax of the item `Cn1nc(N2CCC(=O)NC2=O)c2cc(F)c(N3CC4(CC(N5CCC6(CC5)C[C@@H](n5cnc7ccc(Oc8c(F)ccc(NS(=O)(=O)N9CCOCC9)c8C#N)cc7c5=O)CO6)C4)C3)cc21` in your answer.
50 to 90%

Name the recorded Emax of the item CO[C@@H]1CCN(S(=O)(=O)Nc2ccc(F)c(Oc3ccc4ncn([C@H]5COC6(CCN(C7CCC(c8cc9c(cc8F)c(N8CCC(=O)NC8=O)nn9C)CC7)CC6)C5)c(=O)c4c3)c2C#N)C1 (single isomer, unassigned) in your answer.
< 50%

Name the recorded Emax of the item `CCN(C)S(=O)(=O)Nc1ccc(F)c(Oc2ccc3ncn(CC4CCN(C5CC6(C5)CN(c5cc7c(cc5F)c(N5CCC(=O)NC5=O)nn7C)C6)CC4)c(=O)c3c2)c1C#N` in your answer.
50 to 90%

Name the recorded Emax of the item CCN(C)S(=O)(=O)Nc1ccc(F)c(Oc2ccc3ncc(CCC4CCN(C5CCC(c6ccc(NC7CCC(=O)NC7=O)cc6F)CC5)CC4)nc3c2)c1C#N (single isomer, unassigned) in your answer.
50 to 90%

Name the recorded Emax of the item `CN(CCO)S(=O)(=O)Nc1ccc(F)c(Oc2ccc3ncn([C@H]4COC5(CCN(C6CC7(C6)CN(c6cc8c(cc6F)c(N6CCC(=O)NC6=O)nn8C)C7)CC5)C4)c(=O)c3c2)c1C#N` in your answer.
50 to 90%

Name the recorded Emax of the item `Cn1nc(N2CCC(=O)NC2=O)c2cc(F)c(N3CC4(CC(N5CCC6(CC5)C[C@@H](n5cnc7ccc(Oc8c(F)ccc(NS(=O)(=O)C9CCOCC9)c8C#N)cc7c5=O)CO6)C4)C3)cc21` in your answer.
50 to 90%

----------
- assay_protocol: Pharmacokinetics in female BALB/c nude mice bearing A375 xenografts, 1 day dosing (PK and PD study): plasma, tumor and brain concentrations, AUC
- Format: in vivo
- condition_set: mouse, plasma, po, 100 mg/kg, 100 mg/kg p.o. QD × 1 day; 0.5 h; read-out: Mean Concentration in Plasma ± SEM
observation_type: concentration at 0.5 h

Name the recorded concentration at 0.5 h of the item CC(C)(C)c1nc(-c2cccc(NS(=O)(=O)c3c(F)cccc3F)c2F)c(-c2ccnc(N)n2)s1 [Dabrafenib, dabrafenib, reference compound] in your answer.
44700 ng/mL

----------
Please respond with reported Emax for every item in the list.
- system: BRAF V600E (Homo sapiens, UniProt P15056+Q96SW2, V600E)
- Construct: knock-in of the HiBiT tag to the endogenous BRAF V600E locus; host or cells: A375.10 (A375 clonal line, CRISPR HiBiT knock-in at the endogenous BRAF V600E locus)
- assay_protocol: BRAF V600E HiBiT Degradation Assay
- Assay type: cell-based
- condition_set: A375.10 cells, BRAF V600E, 2 hours; residual protein remaining; read-out: HiBiT-Degradation A375.10 BRAF 2 hours Emax

Name the recorded Emax of the item CCN(C)S(=O)(=O)Nc1ccc(F)c(Oc2ccc3ncc(OCC4(F)CCN(C5CCC(c6cc7c(cc6F)c(N6CCC(=O)NC6=O)nn7C)CC5)CC4)nc3c2)c1C#N (single isomer, unassigned) [Compound 228] in your answer.
50 to 90%

Name the recorded Emax of the item CCN(C)S(=O)(=O)Nc1ccc(F)c(Oc2ccc3ncn(C4CC5(CCC(N6CC[C@@H](c7cc8c(cc7F)c(N7CCC(=O)NC7=O)nn8C)C(F)(F)C6)CC5)C4)c(=O)c3c2)c1C#N (some centres unmarked) [Compound 225] in your answer.
< 50%

Name the recorded Emax of the item CCN(C)S(=O)(=O)Nc1ccc(F)c(Oc2ccc3ncn([C@@H]4COC5(C4)CN(C4CC6(C4)CN(c4cc7c(cc4F)c(N4CCC(=O)NC4=O)nn7C)C6)C5)c(=O)c3c2)c1C#N [Compound 311] in your answer.
50 to 90%

Name the recorded Emax of the item CCN(C)S(=O)(=O)Nc1ccc(F)c(Oc2ccc3ncn(C4CC5(CCN(CC6(O)CCN(c7cc8c(cc7F)c(N7CCC(=O)NC7=O)nn8C)CC6)CC5)C4)c(=O)c3c2)c1C#N [Compound 226] in your answer.
< 50%

Name the recorded Emax of the item CCN(C)S(=O)(=O)Nc1ccc(F)c(Oc2ccc3ncn([C@H]4COC5(CCN(CC6(O)CCN(c7cc8c(cc7F)c(N7CCC(=O)NC7=O)nn8C)CC6)CC5)C4)c(=O)c3c2)c1C#N [Compound 230] in your answer.
< 50%

# credit: patent US20260297060A1
